Several reports have described pKd for UniProtKB P15090; a selection of those results is presented here.
pKd: −log10 of the molar value.

[
  {
    "compound": "O=C(c1nc2c(Cl)cccc2nc1O)N1CCCC1Cc1cccc(Cl)c1 (racemic)",
    "pKd": 6.96
  }
]

Input: Find pKd (UniProtKB P15090) for the entry Cc1nc(-c2ccc(OCc3cc(=O)n4nc(-c5ccccc5)nc4[nH]3)c(F)c2)cs1
Output: < 6.30

Input: Form: Entry = Cc1cc(NC(=O)C2(OCc3cc(=O)n4nc(-c5ccccc5)nc4[nH]3)CCCCC2)n(C)n1 | System = UniProtKB P15090 | pKd = ____
Output: < 6.30

Input: Value wanted: pKd (UniProtKB P15090) of entry Cc1ccc(CC2CCCN2C(=O)c2nc3ccccc3nc2O)cc1C (racemic)
Output: 5.87

Input: Lab note: need pKd for Cc1cc(N)n(C(=O)c2c(Cl)cccc2OCc2cc(=O)n3nc(-c4ccccc4)nc3[nH]2)n1 on UniProtKB P15090, anyone have it?
Output: ≥ 9.00

Input: Query pKd on UniProtKB P15090 for O=C(c1nc2ccc(C(F)(F)F)cc2nc1O)N1CCCC1Cc1cccc(Cl)c1 (racemic)
Output: 6.70

Input: Which measured pKd belongs to CC[C@H](OCc1cc(=O)n2nc(-c3ccccc3)nc2[nH]1)c1ccccc1 , tested on UniProtKB P15090?
Output: < 5.30

Input: Lookup: pKd / UniProtKB P15090 / Cc1c(Cl)cccc1OCc1cc(=O)n2nc(-c3cnccn3)nc2[nH]1
Output: < 6.30

Input: Recall the recorded pKd for O=c1cc(CN2CCCC2Cc2ccc(F)cc2)[nH]c2nc(-c3ccccc3)nn12 (stereo not drawn) with UniProtKB P15090 and state it.
Output: < 6.30

* * *

Several reports have described Kd for Fatty acid-binding protein, adipocyte (Homo sapiens); a selection of those results is presented here.

[
  {
    "molecule": "CNCC1(COC(=O)C2(OCc3cc(=O)n4nc(-c5ccccc5)nc4[nH]3)CCCCC2)CCC1",
    "target-or-system": "Fatty acid-binding protein, adipocyte (Homo sapiens)",
    "Kd": "> 500 nM"
  },
  {
    "molecule": "Cc1ccoc1-c1nc2[nH]c(COc3cccc(Cl)c3C)cc(=O)n2n1",
    "target-or-system": "Fatty acid-binding protein, adipocyte (Homo sapiens)",
    "Kd": "> 500 nM"
  },
  {
    "molecule": "O=C(c1nc2ccccc2nc1O)N1CCCCC1Cc1ccc(F)cc1 (racemic)",
    "target-or-system": "Fatty acid-binding protein, adipocyte (Homo sapiens)",
    "Kd": "4700 nM"
  }
]

Input: Tell me reported Kd for O=C(c1nc2ccccc2nc1O)N1CCCC(Cc2cccc(F)c2)C1 (racemic) , tested with Fatty acid-binding protein, adipocyte (Homo sapiens).
Output: 8600 nM

Input: # value lookup — system Fatty acid-binding protein, adipocyte (Homo sapiens), readout Kd, item O=C(c1nc2ccccc2nc1O)N1CCCCC1Cc1ccccc1 (racemic)
Output: 14200 nM

Input: Notebook entry, Fatty acid-binding protein, adipocyte (Homo sapiens) assay: Kd of Cc1ccccc1OC(C)(C)COCc1cc(=O)n2nc(-c3ccccc3)nc2[nH]1 = ?
Output: 1 to 200 nM
